Below is a list of entries, each paired with its recorded EC50 value.
- System name: RUP3 (Homo sapiens, UniProt Q8TDV5)
- Construct: ID; No:2; expressed in transfected cells; host or cells: melanophores (cultured as per Potenza and Lerner 1992), electroporated
- Sequence (Q8TDV5 with tags, fused parts or gaps): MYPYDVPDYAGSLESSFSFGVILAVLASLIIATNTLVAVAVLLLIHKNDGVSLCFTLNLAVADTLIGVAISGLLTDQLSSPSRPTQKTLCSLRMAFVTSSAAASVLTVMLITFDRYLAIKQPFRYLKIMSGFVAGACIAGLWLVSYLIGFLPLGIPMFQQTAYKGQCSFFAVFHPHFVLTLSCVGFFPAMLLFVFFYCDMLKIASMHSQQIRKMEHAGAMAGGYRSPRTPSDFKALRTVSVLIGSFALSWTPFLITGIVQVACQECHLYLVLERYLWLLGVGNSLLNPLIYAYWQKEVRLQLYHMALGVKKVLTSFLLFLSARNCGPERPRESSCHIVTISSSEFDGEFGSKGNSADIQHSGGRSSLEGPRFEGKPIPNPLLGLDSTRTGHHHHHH
- Protocol details: RUP3 dose responses in melanophores (melanophore dispersion assay)
- Type: cell-based
- Cond: melanophore dispersion assay; read-out: RUP3 (EC50)
Write the value in nM as a bare number.

Before answering, review these 2 worked examples.
get_value(item= COc1cc(S(C)(=O)=O)ccc1Nc1ncnc(OC2CCN(C(=O)OC(C)C)CC2)c1OC [Compound 10] , readout=EC50) returns 26

get_value(item= COc1c(Nc2ccc(S(C)(=O)=O)cc2F)ncnc1OC1CCN(C(=O)OC(C)C)CC1 [Compound 24] , readout=EC50) returns 0.49

Now consider a different compound.
get_value(item= COc1c(Oc2ccc(S(C)(=O)=O)cc2F)ncnc1OC1CCN(C(=O)OC(C)C)CC1 [Compound 76] , readout=EC50) returns 2.51

====

- Protocol details: Aqueous solubility
- Format: physicochemical
- Cond: aqueous medium, aqueous buffer; pH=5
Test readout: solubility (µg/mL)
Write the value in µg/mL as a bare number.

get_value(item= COc1c(Nc2ccc(NCCO)nc2C)ncnc1OC1CCN(C(=O)OC(C)C)CC1 [Compound 78] , readout=solubility) returns 380

Now consider a different compound.
get_value(item= COc1c(OC2CCN(C(=O)OC(C)C)CC2)ccnc1Nc1ccc(S(C)(=O)=O)cc1F [Compound 77] , readout=solubility) returns 190
